Tested Target: GPR40 (Homo sapiens, UniProt O14842)
Construct: expressed in transfected cells; host or cells: HEK293
Sequence (O14842 whole entry, species assumed): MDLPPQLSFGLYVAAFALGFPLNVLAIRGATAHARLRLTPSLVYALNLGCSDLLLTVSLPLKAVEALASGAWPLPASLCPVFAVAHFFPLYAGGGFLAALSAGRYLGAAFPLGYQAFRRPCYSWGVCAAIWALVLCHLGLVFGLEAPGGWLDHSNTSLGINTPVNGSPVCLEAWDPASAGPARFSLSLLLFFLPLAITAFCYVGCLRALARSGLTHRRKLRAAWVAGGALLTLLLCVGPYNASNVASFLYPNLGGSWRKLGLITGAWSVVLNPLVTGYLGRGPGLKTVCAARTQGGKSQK
Assay Notes: BRET Gαq / Gαi2 activation biosensors in HEK293 cells transfected with GPR40
Assay type: cell-based
Condition Info: Gαq biosensor, read-out: EC50, GPR40 Gαq biosensor BRET signal decrease
Reported Property: pEC50
Lab note: report pEC50 as minus log10 of the concentration in molar units, number only.

input: Any idea what its pEC50 is? The molecule is `CCCCCc1cc(CCCCC)cc(CC(=O)[O-])c1.[Na+]`
output: 4.52

====

Tested Target: PPARα (Homo sapiens)
Construct: human PPARα (S167–Y468)
Sequence (Q07869 167-468): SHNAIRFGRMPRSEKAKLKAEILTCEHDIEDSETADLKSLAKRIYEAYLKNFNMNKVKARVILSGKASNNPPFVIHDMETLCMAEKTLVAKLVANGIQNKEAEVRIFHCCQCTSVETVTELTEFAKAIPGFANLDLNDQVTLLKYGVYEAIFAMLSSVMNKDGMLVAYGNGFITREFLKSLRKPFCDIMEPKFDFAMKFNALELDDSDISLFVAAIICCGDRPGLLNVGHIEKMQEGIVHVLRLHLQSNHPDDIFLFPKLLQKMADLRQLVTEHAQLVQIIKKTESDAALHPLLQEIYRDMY
Assay Notes: Cell-based GAL4 transactivation assay in HEK293 cells, PPARα LBD
Condition Info: HEK293, 24 h; read-out: EC50, PPARα transcriptional activity
Reported Property: EC50

input: Query: EC50; subject: `CCCCCc1cc(CCCCC)cc(CC(=O)[O-])c1.[Na+]`
output: 42 µM
